Experiment: Fecal excretion study in rats after oral NS, SF or CNS (LC–MS/MS)
Type: in vivo
Conditions: rat feces, oral CNS 110 mg/kg, 4 h
As shown below, each of these molecules has a reported Excretion amount value.
// units = µg; emit number, no label

Some molecules with known Excretion amount results, for comparison:
>>> numericresult("CC(C)=CCC[C@](C)(O[C@@H]1O[C@H](CO[C@@H]2O[C@H](CO)[C@@H](O)[C@H](O)[C@H]2O)[C@@H](O)[C@H](O)[C@H]1O)[C@H]1CC[C@]2(C)[C@@H]1[C@H](O)C[C@@H]1[C@@]3(C)CC[C@H](O[C@@H]4O[C@H](CO)[C@@H](O)[C@H](O)[C@H]4O[C@@H]4O[C@H](CO)[C@@H](O)[C@H](O)[C@H]4O)C(C)(C)[C@@H]3CC[C@]12C [ginsenoside Rb1]")
7.072
>>> numericresult("CC(C)=CCC[C@](C)(O[C@@H]1O[C@H](CO)[C@@H](O)[C@H](O)[C@H]1O)[C@H]1CC[C@]2(C)[C@@H]1[C@H](O)C[C@@H]1[C@@]3(C)CC[C@H](O)C(C)(C)[C@@H]3[C@@H](O[C@@H]3O[C@H](CO)[C@@H](O)[C@H](O)[C@H]3O)C[C@]12C [ginsenoside Rg1]")
14.286
>>> numericresult("CC(C)=CCC[C@](C)(O[C@@H]1O[C@H](CO)[C@@H](O)[C@H](O)[C@H]1O)[C@H]1CC[C@]2(C)[C@@H]1[C@H](O)C[C@@H]1[C@@]3(C)CC[C@H](O)C(C)(C)[C@@H]3[C@@H](O[C@@H]3O[C@H](CO)[C@@H](O)[C@H](O)[C@H]3O[C@@H]3O[C@@H](C)[C@H](O)[C@@H](O)[C@H]3O)C[C@]12C [ginsenoside Re]")
1.098

Proceeding to the next molecule to report its Excretion amount.
Would you kindly share the measured Excretion amount for CC(C)=CCC[C@](C)(O[C@@H]1O[C@H](CO)[C@@H](O)[C@H](O)[C@H]1O)[C@H]1CC[C@]2(C)[C@@H]1[C@H](O)C[C@@H]1[C@@]3(C)CC[C@H](O[C@@H]4O[C@H](CO)[C@@H](O)[C@H](O)[C@H]4O[C@@H]4O[C@H](CO)[C@@H](O)[C@H](O)[C@H]4O)C(C)(C)[C@@H]3CC[C@]12C [ginsenoside Rd] ?
2.579
